Experiment: Compound stability test in human blood
Format: in vitro ADME
Conditions: human blood, 37° C., 1 μM, 180 min
Method: One (1) mM test compound working solution was prepared in DMSO. One (1) mM propantheline working solution was prepared in acetonitrile, wherein propantheline was used as positive control in this assay. […] Samples were analyzed by LC-MS/MS. […] All calculations were carried out using Microsoft Excel. Peak area ratios were determined from extracted ion chromatograms, and percent compounds remaining at each time point were calculated by the following equation: […]

Compound	Remaining Percentages (%)
CCC(C)n1ncn(-c2ccc(N3CCN(c4ccc(OCC5COC(Cn6c[n+](COC(=O)C(C)C)cn6)(c6ccc(Cl)cc6Cl)O5)cc4)CC3)cc2)c1=O.[Cl-] (stereo not drawn)	BLOD
CCOC(=O)OC[n+]1cnn(CC2(c3ccc(Cl)cc3Cl)OCC(COc3ccc(N4CCN(c5ccc(-n6cnn(C(C)CC)c6=O)cc5)CC4)cc3)O2)c1.[Cl-] (stereo not drawn)	15.2%
CCC(C)n1ncn(-c2ccc(N3CCN(c4ccc(OCC5COC(Cn6c[n+](COC(=O)C(C)(C)C)cn6)(c6ccc(Cl)cc6Cl)O5)cc4)CC3)cc2)c1=O.[Cl-] (stereo not drawn)	BLOD

* * *

Assay: Compound stability test in mouse blood
Format: in vitro ADME
Conditions: mouse blood, 37° C., 1 μM, 90 min
Experimental: One (1) mM test compound working solution was prepared in DMSO. One (1) mM propantheline working solution was prepared in acetonitrile, wherein propantheline was used as positive control in this assay. […] Samples were analyzed by LC-MS/MS. […] All calculations were carried out using Microsoft Excel. Peak area ratios were determined from extracted ion chromatograms, and percent compounds remaining at each time point were calculated by the following equation: […]
Endpoint: Remaining Percentages (%)

Compound	Endpoint	Result
CCC(C)n1ncn(-c2ccc(N3CCN(c4ccc(OCC5COC(Cn6c[n+](COC(C)=O)cn6)(c6ccc(Cl)cc6Cl)O5)cc4)CC3)cc2)c1=O.[Cl-] (stereo not drawn)	Remaining Percentages (%)	30.3%
CCC(C)n1ncn(-c2ccc(N3CCN(c4ccc(OCC5COC(Cn6c[n+](COC(=O)C(C)(C)C)cn6)(c6ccc(Cl)cc6Cl)O5)cc4)CC3)cc2)c1=O.[Cl-] (stereo not drawn)	Remaining Percentages (%)	BLOD
CCCOC(=O)OC[n+]1cnn(CC2(c3ccc(Cl)cc3Cl)OCC(COc3ccc(N4CCN(c5ccc(-n6cnn(C(C)CC)c6=O)cc5)CC4)cc3)O2)c1.[Cl-] (stereo not drawn)	Remaining Percentages (%)	BLOD

* * *

assay: Compound stability test in mouse blood; format: in vitro ADME; conditions: mouse blood, 37° C., 1 μM, 120 min
Endpoint: Remaining Percentages (%)

Compound	Numeric Value
CCC(C)n1ncn(-c2ccc(N3CCN(c4ccc(OCC5COC(Cn6c[n+](CC)cn6)(c6ccc(Cl)cc6Cl)O5)cc4)CC3)cc2)c1=O.[Cl-] (stereo not shown) [Compound 2]	0.175

[A] CC(C)[N+](C)(CCOC(=O)C1c2ccccc2Oc2ccccc21)C(C)C [Propantheline, propantheline, reference compound]
[B] CCC(C)n1ncn(-c2ccc(N3CCN(c4ccc(OCC5COC(Cn6c[n+](C)cn6)(c6ccc(Cl)cc6Cl)O5)cc4)CC3)cc2)c1=O.[Cl-] (stereo not shown) [Compound 1]
Exam item: // returns A or B , whichever has the lower Remaining Percentages (%) Response format: the label of the selected entry.
Marked response: B
(B: 0.00%, A: 12.3%)
